Target: human GLP-1 receptor (human, UniProt P43220 24-463)
Assay: cell-based or functional assay
MEASUREMENT_LABEL: cAMP EC50 (1.0% HSA) (nM)
Answers are plain numbers, in nM.

Consider the reported cAMP EC50 (1.0% HSA) for these binders:
BINDER | UNITS_LABEL | ASSAY_VALUE
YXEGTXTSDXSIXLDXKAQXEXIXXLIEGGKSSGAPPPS (Aib2, αMeF(2F)6, 4Pal10, αMeL13, Orn16, Aib20, 1Nal22, D-Glu24, αMeY25; acylated K17, K31 (groups as in name); C-terminal amide) | nM | 27
YXEGTXTSDXSIXLDXKAQXXFIXXLIEGGKSSGAPPPS (Aib2, αMeF(2F)6, 4Pal10, αMeL13, Orn16, Aib20, 4Pal21, D-Glu24, αMeY25; acylated K17, K31 (groups as in name); C-terminal amide) | nM | 36
YXEGTXTSDXSKXLDXKAQXEFIXXLIEGGPSSGAPPPS (Aib2, αMeF(2F)6, 4Pal10, αMeL13, Orn16, Aib20, D-Glu24, αMeY25; acylated K12, K17 (groups as in name); C-terminal amide) | nM | 60.4
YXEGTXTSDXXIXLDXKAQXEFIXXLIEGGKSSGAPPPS (Aib2, αMeF(2F)6, 4Pal10, Dap11, αMeL13, Orn16, Aib20, D-Glu24, αMeY25; acylated K17, K31 (groups as in name); C-terminal amide) | nM | 70
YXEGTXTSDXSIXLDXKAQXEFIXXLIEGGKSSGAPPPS (Aib2, αMeF(2F)6, Ac5c10, αMeL13, Orn16, Aib20, D-Glu24, αMeY25; acylated K17, K31 (groups as in name); C-terminal amide) | nM | 13.2

Please state cAMP EC50 (1.0% HSA) for every binder in the list that follows.
1. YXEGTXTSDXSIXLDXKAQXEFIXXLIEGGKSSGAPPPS (Aib2, αMeF(2F)6, hTyr10, αMeL13, Orn16, Aib20, D-Glu24, αMeY25; acylated K17, K31 (groups as in name); C-terminal amide)
2. YXEGTXTSDVSIXLDXKAQXEFIXXLIEGGKSSGAPPPS (Aib2, αMeF(2F)6, αMeL13, Orn16, Aib20, D-Glu24, αMeY25; acylated K17, K31 (groups as in name); C-terminal amide)

Result string:
[16.2, 23.4]

Please state cAMP EC50 (1.0% HSA) for every binder in the list that follows.
1. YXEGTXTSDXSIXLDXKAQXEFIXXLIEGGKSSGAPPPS (Aib2, αMeF(2F)6, αMeL10, αMeL13, Orn16, Aib20, D-Glu24, αMeY25; acylated K17, K31 (groups as in name); C-terminal amide)
2. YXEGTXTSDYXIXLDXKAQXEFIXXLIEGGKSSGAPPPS (Aib2, αMeF(2F)6, αMeS11, αMeL13, Orn16, Aib20, D-Glu24, αMeY25; acylated K17, K31 (groups as in name); C-terminal amide)
3. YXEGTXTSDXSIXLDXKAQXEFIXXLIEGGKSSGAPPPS (Aib2, αMeF6, 4Pal10, αMeF13, Orn16, Aib20, D-Glu24, αMeY25; acylated K17, K31 (groups as in name); C-terminal amide)
4. YXEGTXTSDVXIXLDXKAQXEFIXXLIEGGKSSGAPPPS (Aib2, αMeF(2F)6, αMeS11, αMeL13, Orn16, Aib20, D-Glu24, αMeY25; acylated K17, K31 (groups as in name); C-terminal amide)
5. YXEGTXTSDXGIXLDXKAQXEFIXXLIEGGKSSGAPPPS (Aib2, αMeF(2F)6, 4Pal10, αMeL13, Orn16, Aib20, D-Glu24, αMeY25; acylated K17, K31 (groups as in name); C-terminal amide)
6. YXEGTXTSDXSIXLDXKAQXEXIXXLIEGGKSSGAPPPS (Aib2, αMeF(2F)6, Ac5c10, αMeL13, Orn16, Aib20, αMeF22, D-Glu24, αMeY25; acylated K17, K31 (groups as in name); C-terminal amide)

Result string:
100
20.1
261
33.7
402
145
